Data provenance: ChEMBL document CHEMBL1201862

# System: HOP-92
# experimentSummary: NCI tumour cell line growth inhibition, 48 h
Calls of active or inactive are those of the source. No stated cut-off is given here; in the data, active = GI50 up to about 1.1 µM and inactive = higher.
Pick from Yes (active), No (inactive) when you respond.

Recorded call for CC1C[C@H](OC(N)=O)C(C)CC1=O (stereo partly drawn) ?
No

Hey, what did the test say about `CN(C)c1ccc(/C=c2/sc3nc(=O)c(-c4ccccc4NC(=O)C(F)(F)F)nn3c2=O)cc1` ?
No

Short answer needed: outcome of this test for `O=C(c1ccccc1)c1ccc(OCCOc2ccc(Nc3ccccc3)cc2)cc1` ?
No

For COC(=O)c1cc(C)ccc1CC(Cc1ccc(C)cc1)C(=O)OC (stereo not drawn) , what call appears in the results of this test?
No

Tell me the recorded outcome of this test for CCOC(=O)C1C(=S)NC(=O)C1C#N (stereo not drawn) .
No

For `COc1cc(CCc2ccc(OC(C)=O)cc2)cc(OC)c1OC` , which call appears in the assay record?
No

Check the results log: what was the call for `CC(=O)c1c2c(cc3c1CC1(C3)Cc3cc4c(c(C(C)=O)c3C1)CCC4)CCC2` ?
No

Just curious, what result did O=C(c1c(O)cc(O)cc1O)C1Cc2ccccc21 (stereo not drawn) get here?
No

# fetch the recorded call for `O=C(O)CSC1=NC(=O)C2(NN1)c1ccccc1-c1ccccc12` here
No

Recorded test call requested for `C[C@@H]1C[C@@H](O)[C@]2(O)O[C@@H]3C[C@@]4(C=O)[C@@H](CC[C@@H]5[C@@H]4CC[C@]4(C)[C@@H](C6=CC(=O)OC6)CC[C@]54O)C[C@H]3O[C@@H]2O1`
Yes

Check the results log: what was the call for COc1nc(NC2OC(COC(C)=O)C(OC(C)=O)C(OC(C)=O)C2OC(C)=O)c(/N=C(\C)C(C)=O)c(=O)n1C (stereo not drawn) ?
No

Called result for `CCOC(=O)/C(C#N)=C/Nc1c(C)n(C)n(-c2ccccc2)c1=O`
No

Any idea what this test logged for CCOC(=O)CSc1nnc(C(Sc2nc(-c3ccccc3)c(-c3ccccc3)[nH]2)C(C)C)n1-c1ccccc1 (stereo not drawn) ?
No

----------
# Test system: COLO 205
# experimentSummary: NCI tumour cell line growth inhibition, 48 h
Activity calls are given as the source filed them. Rule as the data show it: active = GI50 up to about 1.1 µM and inactive = higher.
For each entry below, report its GI50 value.

The recorded GI50 for entry `CC[C@H](C)[C@H](NC(=O)[C@@]1(O)[C@H](O)[C@]2(CC)C=CCN3CC[C@@]4(c5cc(Br)c(OC)cc5N(C)[C@@H]14)[C@@H]32)C(=O)OC` equals 14 µM (inactive)

# compound `O=[N+]([O-])/C(Cl)=C(/C(Cl)=C(Cl)Cl)N1CCOCC1` ; its GI50 = 2.54 µM (inactive)

Looking up `CC(=O)CC(N)=O` , I see its GI50 listed as > 100 µM (inactive)

Summary for this compound, `CN(CCO)c1nc(N)cc(=O)[nH]1` : GI50 is > 100 µM (inactive)

What the record says about `CC(=O)OCCn1c(Cc2ccc(Cl)cc2)nn(C(C)=O)c1=O` : GI50 is > 100 µM (inactive)

Briefly, GI50 measured for `CCOC(=O)C#Cc1ccc([N+](=O)[O-])cc1` : 1.72 µM (inactive)

Item: `Nc1cccc(-c2cc(O)c3cc4c(cc3n2)OCO4)c1` | GI50: 0.384 µM (active)

Entry `CN(C)c1ccc(/C=N/NC(=S)Nc2ccccc2)cc1` ; GI50 = > 100 µM (inactive)

// GI50 lookup, compound = `O=C1C(O)=C(CCCCCCCCC2CCCCC2)C(=O)c2ccccc21` , result: 8.45 µM (inactive)

compound `Cc1cc(N)ccc1C=O` , GI50 observed: > 100 µM (inactive)

Note to self: GI50 recorded for c1ccc2c(c1)Sc1ccccc1N2CC1CN2CCC1CC2 (stereo unspecified) was 1.69 µM (inactive)
